Field: normalized growth. Provide a value for each of the compounds that follow.
Procedure details: chemical genetic growth profiling, strain panel (AID 1159580);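 note: tested at 20 µM; growth read once vehicle control cultures reached saturation at 30 °C; 1 = growth at the plate median or of vehicle wells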
Experimental parameters: S. cerevisiae deletion strains, growth OD, locus YCL011C, strain gbp2, stronger effect = lower value
Among all 5,500 compounds or so, about 2,000 (36%) were called active. Not shown: some 18% with an inconclusive outcome. The list shows a part of the results.
Give only the figure.

q: Sample C[C@@H]1O[C@@H](O[C@H]2[C@@H](Oc3cc(O)c4c(c3)O[C@H](c3ccc(O)cc3)CC4=O)O[C@H](CO)[C@@H](O)[C@@H]2O)[C@H](O)[C@H](O)[C@H]1O — what was its normalized growth?
a: 0.957

q: Fill in: normalized growth of COc1ccc(-c2coc3c(OC)c(OC)cc(O)c3c2=O)cc1 is ___
a: 0.998

q: For the compound COc1ccc2c(c1)[C@@]1(C)CCC(=O)C[C@H]1CC2 , what normalized growth is on record?
a: 0.961

q: Quick one: normalized growth of O=C(Cc1ccccc1)NO ?
a: 0.978

q: Given the entry Cc1ccc2c(c1)CC[C@H]1CC(=O)CC[C@]21C , report its measured normalized growth.
a: 0.995

q: Would you mind telling me what normalized growth value was observed for COc1cccc2c1CCC1CC(=O)CCC21C (stereo unspecified) ?
a: 1

q: Could you share which normalized growth value was measured for O=C1CC(c2ccc(O)c(O)c2)Oc2cc(O)cc(O)c21 (stereo unspecified) ?
a: 1

q: What value of measured normalized growth is listed for O=C1C[C@@H](c2ccc(O)cc2)Oc2cc(O)cc(O)c21 ?
a: 0.952

q: Reported normalized growth for COc1ccc([C@@H]2CC(=O)c3c(O)cc(O)cc3O2)cc1O : what is it?
a: 0.975

q: For the compound shown here, COc1ccc2c(c1)C1(C)CCC(=O)CC1CC2 (stereo unspecified) , give the reported normalized growth.
a: 1.01

q: Can you share its normalized growth? I mean this compound: CCCCOc1ccc(CC(=O)NO)cc1
a: 0.99

All values here come from PubChem BioAssay AID1159580.
